// reported pEC50 per item
Target: rat EP2 receptor (Rattus norvegicus, UniProt Q62928)
Sequence (Q62928 whole entry): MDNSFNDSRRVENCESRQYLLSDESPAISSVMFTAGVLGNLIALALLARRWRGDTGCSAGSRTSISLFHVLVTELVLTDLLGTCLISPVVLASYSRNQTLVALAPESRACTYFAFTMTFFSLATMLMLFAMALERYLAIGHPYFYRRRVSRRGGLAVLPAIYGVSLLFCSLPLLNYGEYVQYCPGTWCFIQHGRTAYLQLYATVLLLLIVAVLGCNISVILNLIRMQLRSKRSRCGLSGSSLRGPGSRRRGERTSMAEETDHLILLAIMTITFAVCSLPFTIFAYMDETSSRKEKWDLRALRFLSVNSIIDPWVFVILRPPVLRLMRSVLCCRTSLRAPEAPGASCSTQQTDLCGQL
Experiment: Measurement of EP2 agonist activity (intracellular cyclic AMP concentration, cAMP assay)
Settings: rEP2-CHO cell, maximum = PGE2 (1 μmol/l)
pEC50: −log10 of the molar value.

>  <mol_smiles>
C[C@@](O)(C/C=C/[C@H]1CCC(=O)[C@@H]1CCSc1nc(C(=O)O)cs1)CC1CCCCC1

>  <pEC50>
7.96

$$$$
>  <mol_smiles>
O=C(O)c1csc(SCCN2C(=O)OC[C@@H]2/C=C/[C@@H](O)C2(CCCCF)CCC2)n1

>  <pEC50>
7.80

$$$$

Every entry's value here was drawn from patent US8404858B2.
